Test system: Streptococcus agalactiae
Test: Antibacterial activity against multidrug-resistant Streptococcus agalactiae after 24 hrs by broth microdilution method
Format: functional
Quantity kind: MIC (µg/mL)
Give bare numbers, in µg/mL.

Below is a list of molecules. For each, state its recorded MIC.
1. O=C(Cn1c2ccccc2c2nc3ccccc3nc21)N1N=C(c2cc3ccccc3o2)CC1c1ccccc1O (stereo not drawn)
2. COc1ccccc1C1CC(c2cc3ccccc3o2)=NN1C(=O)Cn1c2ccccc2c2nc3ccccc3nc21 (stereo not drawn)
3. O=C(Cn1c2ccccc2c2nc3ccccc3nc21)N1N=C(c2cc3ccccc3o2)CC1c1ccc(O)cc1 (stereo not drawn)
4. COc1ccc(C2CC(c3cc4ccccc4o3)=NN2C(=O)Cn2c3ccccc3c3nc4ccccc4nc32)cc1 (stereo not drawn)

[22, 25, 32.5, 19]

Below is a list of molecules. For each, state its recorded MIC.
1. COc1ccc(C2CC(c3cc4ccccc4o3)=NN2C(=O)Cn2c3ccccc3c3nc4ccccc4nc32)c(O)c1 (stereo not drawn)
2. CN(C)c1ccc(C2CC(c3cc4ccccc4o3)=NN2C(=O)Cn2c3ccccc3c3nc4ccccc4nc32)cc1 (stereo not drawn)
3. O=C(Cn1c2ccccc2c2nc3ccccc3nc21)N1N=C(c2cc3ccccc3o2)CC1c1ccccc1Cl (stereo not drawn)

1. 28
2. 36.5
3. 30

Need MIC of O=C(Cn1c2ccccc2c2nc3ccccc3nc21)N1N=C(c2cc3ccccc3o2)CC1c1cccc([N+](=O)[O-])c1 (stereo not drawn) , thanks.
26
